Please respond with reported SI(CC50/EC50) for every item in the list.
# System: HIV-1IIIB virus strain
# Experimental Details: Anti-HIV activity test (MT-2 cell model), p24 antigen ELISA
# Type: cell-based
# Particulars: MT-2 cells; ratio of toxicity CC50 value to activity EC50 value

SI(CC50/EC50) lookup needed for Cc1cc(C=CC#N)cc(C)c1Oc1ccc([N+](=O)[O-])c(Nc2ccc(C#N)cc2)n1 [Compound I-5] , thanks.
4,956

SI(CC50/EC50) lookup needed for Cc1cc(C#N)cc(C)c1Oc1ccc(N)c(Nc2ccc(C#N)cc2)n1 [Compound I-6] , thanks.
22,560

SI(CC50/EC50) lookup needed for C=CCc1cc(C)c(Oc2ccc([N+](=O)[O-])c(Nc3ccc(C#N)cc3)n2)c(C)c1 [Compound I-9] , thanks.
>917

SI(CC50/EC50) lookup needed for Cc1cc(C)c(Oc2ccc([N+](=O)[O-])c(Nc3ccc(C#N)cc3)n2)c(C)c1 [Compound I-3] , thanks.
4,264

Reference for the values: patent US8933106B2
